Give growth inhibition for every item shown.
Tested on: HGGX39 (paediatric high-grade glioma line)
Assay: growth inhibition (% activity, log2 RLU normalised to DMSO / staurosporine); higher = more growth inhibition
Details: 33 µM
Numbers only, in %.

CCCCc1nc(Cl)c(CO)n1Cc1ccc(-c2ccccc2-c2nnn[nH]2)cc1    0.264
CCCCNc1ccc(C(=O)OCCN(C)C)cc1    5.11

Next compound, please.
Query: I'd like to know its growth inhibition. The compound in question is CCN(Cc1ccncc1)C(=O)C(CO)c1ccccc1 (stereo not drawn)
Response: -1.19

---

Give growth inhibition for every item shown.
Tested on: SUDIPGIV (diffuse intrinsic pontine glioma line)
Experiment: growth inhibition (% activity, log2 RLU normalised to DMSO / staurosporine); higher = more growth inhibition
Conditions: 33 µM
One number for each entry, in %.

Your task in this section: give growth inhibition for each listed record.
1. CC[C@H](C)[C@H](N)C1=N[C@H](C(=O)N[C@@H](CC(C)C)C(=O)N[C@H](CCC(=O)O)C(=O)N[C@H](C(=O)N[C@H]2CCCCNC(=O)[C@H](CC(N)=O)NC(=O)[C@@H](CC(=O)O)NC(=O)[C@H](Cc3cnc[nH]3)NC(=O)[C@@H](Cc3ccccc3)NC(=O)[C@H]([C@@H](C)CC)NC(=O)[C@@H](CCCN)NC2=O)[C@@H](C)CC)CS1
2. CC/C(=C(/CC)c1ccc(O)cc1)c1ccc(O)cc1
3. CN1CCN(c2c(F)cc3c(=O)c(C(=O)O)cn4c3c2OCN4C)CC1
4. CC(C)C[C@H](NC(=O)[C@H](O)[C@H](N)Cc1ccccc1)C(=O)O
5. CO/N=C(\C(=O)N[C@@H]1C(=O)N2C(C(=O)OCOC(=O)C(C)(C)C)=C(/C=C\c3scnc3C)CS[C@H]12)c1csc(N)n1
6. CC1(C)O[C@@H]2C[C@H]3[C@@H]4CCC5=CC(=O)C=C[C@]5(C)[C@H]4[C@@H](O)C[C@]3(C)[C@]2(C(=O)CO)O1
7. CC(C)(O)c1ccccc1CC[C@@H](SCC1(CC(=O)O)CC1)c1cccc(/C=C/c2ccc3ccc(Cl)cc3n2)c1
8. NCCS(=O)(=O)O

Response:
[0.589, 0.624, 1.21, -2.58, 0.557, 0.0175, -1.21, -0.945]

---

Give growth inhibition for every item shown.
System: DIPGX9 (diffuse intrinsic pontine glioma line)
Assay: growth inhibition (% activity, log2 RLU normalised to DMSO / staurosporine); higher = more growth inhibition
Conditions: 33 µM

CCCCN(CCCC)CCCOC(=O)c1ccc(N)cc1    2.44%
C[C@@H]1CN(c2c(F)c(N)c3c(=O)c(C(=O)O)cn(C4CC4)c3c2F)C[C@H](C)N1    1.04%
CCC[C@@H]1C[C@@H](C(=O)N[C@@H]([C@H]2O[C@H](SC)[C@H](O)[C@@H](O)[C@H]2O)[C@@H](C)O)N(C)C1    0.338%
Cc1nc(Nc2ncc(C(=O)Nc3c(C)cccc3Cl)s2)cc(N2CCN(CCO)CC2)n1    12.4%
Cc1ccc(C(=O)c2cc(O)c(O)c([N+](=O)[O-])c2)cc1    -2.4%

Your task in this section: give growth inhibition for each listed record.
1. O=C(O)c1ccc(NC(=O)[C@H](Cc2ccc(O)cc2)NC(=O)c2ccccc2)cc1
2. CCn1cc(C(=O)O)c(=O)c2ccc(C)nc21
3. Clc1ccc(C(Cn2ccnc2)OCc2ccsc2Cl)c(Cl)c1 (stereo not drawn)
4. c1ccc2[nH]c(-c3cscn3)nc2c1
5. COc1ccc(O)cc1
6. CN(C)CCOC(c1ccccc1)c1ccccc1

Response:
1. -1.13%
2. 0.0696%
3. 4.52%
4. 0.56%
5. 0.0566%
6. -1.77%

Your task in this section: give growth inhibition for each listed record.
1. O=S(=O)(O)CCS
2. NC(=O)c1cnccn1

Response:
0.715%
-0.339%
